Every entry's value here was drawn from patent US9676792B2.

Biological target: UniProtKB P29323
Assay: ActivX kinase profiling
Type: binding
Quantity measured: ActivX EphB2

COc1cc(C(=O)N2CCC(N3CCN(C)CC3)CC2)ccc1Nc1ncc2c(n1)-c1ccccc1N(C1CCCC1)C(=O)N2 2
COc1cc(C(=O)N2CCC(N3CCN(C)CC3)CC2)ccc1Nc1ncc2c(n1)-c1ccccc1N(C)C(=O)N2C −20.9
COc1cc(C(=O)N2CCC(N3CCN(C)CC3)CC2)ccc1Nc1ncc2c(n1)-c1ccccc1NC(=O)N2 60.1
COc1cc(C(=O)N2CCC(N3CCN(C)CC3)CC2)ccc1Nc1ncc2c(n1)-c1ccccc1N(Cc1ccccc1Cl)C(=O)N2C 2.5
CN1C(=O)N(Cc2ccccc2Cl)c2ccccc2-c2nc(Nc3ccc(N4CCC(O)CC4)cc3)ncc21 −13

Next up:
query: Value lookup for ActivX EphB2; key = `CN1C(=O)N(C)c2cnc(Nc3ccc(N4CCC(O)CC4)cc3)nc2-c2ccccc21`
result: 19.8

----------
Molecular target: EphB2 (Homo sapiens (Human), UniProt P29323)
Sequence (P29323 19-1055): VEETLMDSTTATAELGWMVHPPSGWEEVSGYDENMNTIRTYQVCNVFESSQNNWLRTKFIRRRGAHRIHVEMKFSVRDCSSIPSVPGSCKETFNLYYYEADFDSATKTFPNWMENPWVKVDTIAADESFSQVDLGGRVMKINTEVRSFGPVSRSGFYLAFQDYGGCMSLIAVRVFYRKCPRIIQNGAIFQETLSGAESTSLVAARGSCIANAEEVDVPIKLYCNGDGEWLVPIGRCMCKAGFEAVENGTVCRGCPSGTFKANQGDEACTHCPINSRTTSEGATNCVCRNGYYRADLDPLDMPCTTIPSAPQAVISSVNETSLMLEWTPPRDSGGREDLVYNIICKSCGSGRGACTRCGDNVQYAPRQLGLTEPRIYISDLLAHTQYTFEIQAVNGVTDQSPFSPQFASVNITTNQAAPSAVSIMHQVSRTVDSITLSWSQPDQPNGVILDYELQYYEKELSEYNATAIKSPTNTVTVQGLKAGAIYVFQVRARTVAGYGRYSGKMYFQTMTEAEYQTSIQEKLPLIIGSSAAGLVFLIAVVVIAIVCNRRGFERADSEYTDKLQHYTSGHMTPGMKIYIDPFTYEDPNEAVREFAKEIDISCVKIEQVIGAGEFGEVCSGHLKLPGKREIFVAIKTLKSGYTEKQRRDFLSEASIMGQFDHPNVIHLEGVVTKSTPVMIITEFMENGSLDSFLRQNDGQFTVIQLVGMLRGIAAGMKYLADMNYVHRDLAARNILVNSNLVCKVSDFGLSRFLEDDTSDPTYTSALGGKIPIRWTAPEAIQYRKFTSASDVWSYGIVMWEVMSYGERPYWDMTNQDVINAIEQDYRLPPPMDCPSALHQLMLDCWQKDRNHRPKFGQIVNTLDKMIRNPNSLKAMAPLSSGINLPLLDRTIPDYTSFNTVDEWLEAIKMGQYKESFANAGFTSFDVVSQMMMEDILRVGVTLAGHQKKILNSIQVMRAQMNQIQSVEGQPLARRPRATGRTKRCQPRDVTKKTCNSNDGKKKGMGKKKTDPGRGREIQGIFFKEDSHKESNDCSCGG
Experiment: ActivX kinase profiling
Format: binding
The following compounds are shown together with reported ActivX EphB2 values.
# respond with the number and nothing more

Examples with answers:
COc1cc(C(=O)N2CCC(N3CCN(C)CC3)CC2)ccc1Nc1ncc2c(n1)-c1ccccc1N(Cc1ccccc1C)C(=O)N2 12.2
COc1cc(N2CCN(C)CC2)ccc1Nc1ncc2c(n1)-c1ccccc1N(C1CCCC1)C(=O)N2 5.2
COc1cc(N2CCN(C)CC2)ccc1Nc1ncc2c(n1)-c1ccccc1N(C1CCOCC1)C(=O)N2 7
Cc1ccccc1CN1C(=O)N(C)c2cnc(Nc3ccc(N4CCC(O)CC4)cc3)nc2-c2ccccc21 18.3
COc1cc(C(=O)N2CCC(N3CCN(C)CC3)CC2)ccc1Nc1ncc2c(n1)-c1ccccc1N(Cc1ccccc1C)C(=O)N2C 0.9
CN1C(=O)N(Cc2c(Cl)cccc2Cl)c2ccccc2-c2nc(Nc3ccc(N4CCC(O)CC4)cc3)ncc21 −5.5
CN1C(=O)N(C2CCCC2)c2ccccc2-c2nc(Nc3ccc(N4CCC(O)CC4)cc3)ncc21 6.8
O=C1Nc2cnc(Nc3ccc(N4CCC(O)CC4)cc3)nc2-c2ccccc2N1Cc1ccccc1Cl 6.1

query: Quick check: ActivX EphB2 on EphB2 (Homo sapiens (Human), UniProt P29323), item `O=C1Nc2cnc(Nc3ccc(N4CCC(O)CC4)cc3)nc2-c2ccccc2N1C1CCCC1` ?
result: 21.5
